Target: HLA-A02.01 (Homo sapiens, UniProt P04439, D140Y/D185E/D98H/E176V/E277Q/G131W/G231S/I119V/I121R/I166T/I218V/L300P/L318F/N151K/N90K/P208A/P217A/Q86G/Q94H/R138H/R169H/T345S)
Assay: Class I MHC peptide binding affinity (displacement of radiolabeled reference peptide)
Conditions: allele A02.01; read-out: Observed Affinity (IC50; (nM))
Where a SMILES comes first, the peptide text is derived from it.
measurement_name: log10 of IC50 (log10 of the value in nM)
Parameter value (number): base-10 log of IC50 in nM.

Recorded results for 4 compounds are shown here.
CC(C)C[C@H](NC(=O)[C@H](CC(C)C)NC(=O)CNC(=O)[C@H](Cc1ccc(O)cc1)NC(=O)[C@H](CC(C)C)NC(=O)[C@@H]1CCCN1C(=O)[C@@H](NC(=O)[C@@H](NC(=O)[C@@H](N)CC(N)=O)C(C)C)C(C)C)C(=O)O (H-NVVPLYGLL-OH; N-terminus and C-terminus assumed) :: 4.02
CC[C@H](C)[C@H](NC(=O)[C@H](CO)NC(=O)[C@H](Cc1c[nH]c2ccccc12)NC(=O)[C@H](Cc1c[nH]cn1)NC(=O)[C@H](C)NC(=O)[C@@H]1CCCN1C(=O)[C@H](CCSC)NC(=O)[C@H](CC(C)C)NC(=O)[C@H](CO)NC(=O)[C@@H](N)CC(C)C)C(=O)O :: 2.21
CC(C)C[C@H](NC(=O)[C@H](C)NC(=O)[C@@H](NC(=O)[C@@H]1CCCN1C(=O)[C@@H](NC(=O)[C@H](CS)NC(=O)[C@H](CO)NC(=O)[C@H](CO)NC(=O)[C@H](CC(C)C)NC(=O)[C@@H](N)CCCNC(=N)N)C(C)C)C(C)C)C(=O)O [RLSSCVPVAL] (H-RLSSCVPVAL-OH; N-terminus and C-terminus assumed) :: 1.73
CSCC[C@H](N)C(=O)N[C@@H](C)C(=O)N[C@@H](CC(C)C)C(=O)N[C@@H](CC(N)=O)C(=O)N[C@@H](CO)C(=O)N[C@@H](CCC(=O)O)C(=O)N[C@@H](C)C(=O)N[C@@H](CC(C)C)C(=O)N[C@@H](CO)C(=O)N[C@H](C(=O)O)C(C)C :: 2.11

Lookup: log10 of IC50 for CC(C)C[C@H](NC(=O)[C@H](CC(C)C)NC(=O)[C@H](CC(C)C)NC(=O)[C@H](CC(=O)O)NC(=O)[C@H](CO)NC(=O)[C@H](CC(C)C)NC(=O)[C@@H]1CCCN1C(=O)[C@@H](NC(=O)[C@@H](NC(=O)[C@@H](N)CC(N)=O)C(C)C)C(C)C)C(=O)O (H-NVVPLSDLLL-OH; N-terminus and C-terminus assumed) ?
Found: 2.87

Lookup: Any idea what log10 of IC50 was measured for CC[C@H](C)[C@H](NC(=O)[C@H](CC(C)C)NC(=O)[C@H](Cc1c[nH]cn1)NC(=O)[C@@H](NC(=O)[C@H](CO)NC(=O)[C@H](CC(C)C)NC(=O)[C@H](CC(C)C)NC(=O)[C@@H](N)C(C)C)C(C)C)C(=O)N[C@H](C(=O)O)C(C)C (H-VLLSVHLIV-OH; N-terminus and C-terminus assumed) ?
Found: 1.86

Lookup: Entry under review: CC[C@H](C)[C@H](N)C(=O)N[C@@H](CCSC)C(=O)N[C@@H](CO)C(=O)N[C@@H](CC(C)C)C(=O)N[C@@H](Cc1c[nH]c2ccccc12)C(=O)NCC(=O)N[C@@H](CC(C)C)C(=O)N[C@H](C(=O)N[C@@H](CO)C(=O)O)C(C)C (H-IMSLWGLVS-OH) . Reported log10 of IC50?
Found: 3.86
